Source listed as paper PMC8745178.

Below, each of the compounds is paired with its reported ΔGobs CAIII value.
- TEST_SYSTEM: CAIII (Homo sapiens, UniProt P07451)
- Sequence (P07451 whole entry): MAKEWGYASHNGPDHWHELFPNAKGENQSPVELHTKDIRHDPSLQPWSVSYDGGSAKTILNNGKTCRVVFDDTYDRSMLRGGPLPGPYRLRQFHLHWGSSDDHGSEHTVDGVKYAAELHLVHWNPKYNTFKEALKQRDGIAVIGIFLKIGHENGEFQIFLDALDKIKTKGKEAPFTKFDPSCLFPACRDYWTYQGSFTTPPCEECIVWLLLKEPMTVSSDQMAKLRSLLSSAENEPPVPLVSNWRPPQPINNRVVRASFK
- ASSAY_PROTOCOL: fluorescent thermal shift assay (FTSA), CAIII
- Assay type: binding
- CONDITION_INFO: converted from Kd_obs, 37 °C, pH 7.0, FTSA

- COMPOUND: "COC(=O)c1cc(S(N)(=O)=O)c(Cl)cc1SC1CCCCC1"
  ΔGobs CAIII: "≥ -5.26 kcal/mol"
- COMPOUND: "COC(=O)c1cc(S(N)(=O)=O)c(Cl)cc1Cl [Compound 1, Methyl 2,4-dichloro-5-sulfamoyl-benzoate]"
  ΔGobs CAIII: "-6.09 kcal/mol"
- COMPOUND: "COC(=O)c1cc(S(N)(=O)=O)c(Cl)cc1Sc1cccc2ccccc12"
  ΔGobs CAIII: "≥ -5.26 kcal/mol"
- COMPOUND: "COC(=O)c1cc(S(N)(=O)=O)c(S(=O)(=O)C2CCCCC2)cc1Cl"
  ΔGobs CAIII: "-5.66 kcal/mol"
- COMPOUND: "COC(=O)c1cc(S(N)(=O)=O)c(SC2CCCCC2)cc1Cl"
  ΔGobs CAIII: "-6.24 kcal/mol"

Prompt: I have this compound here, COC(=O)c1cc(S(N)(=O)=O)c(S(=O)(=O)CCc2ccccc2)cc1Cl , and I need its recorded ΔGobs CAIII.
Completion: ≥ -5.26 kcal/mol

Prompt: Looking for the measured ΔGobs CAIII of COC(=O)c1cc(S(N)(=O)=O)c(Cl)cc1S(=O)(=O)CCc1ccccc1 , can you help?
Completion: -8.56 kcal/mol

Prompt: Any idea what its ΔGobs CAIII is? The compound is COC(=O)c1cc(S(N)(=O)=O)c(S(=O)(=O)Cc2ccccc2)cc1Cl
Completion: ≥ -5.26 kcal/mol

Prompt: // lookup ΔGobs CAIII for COC(=O)c1cc(S(N)(=O)=O)c(SC2CCCCC2)cc1Br
Completion: -6.14 kcal/mol
